molecular target: recombinant human enzyme CK-1ε (Homo sapiens, UniProt P49674); test: Enzyme inhibition assay, Luminometer Kinase-GLO method, CK-1ε; conditions: casein substrate, 4 μM ATP, 60 minutes at 30° C.; read-out: Inhibitory Concentration 50 (IC50) CK-1ε
Sequence (P49674 whole entry): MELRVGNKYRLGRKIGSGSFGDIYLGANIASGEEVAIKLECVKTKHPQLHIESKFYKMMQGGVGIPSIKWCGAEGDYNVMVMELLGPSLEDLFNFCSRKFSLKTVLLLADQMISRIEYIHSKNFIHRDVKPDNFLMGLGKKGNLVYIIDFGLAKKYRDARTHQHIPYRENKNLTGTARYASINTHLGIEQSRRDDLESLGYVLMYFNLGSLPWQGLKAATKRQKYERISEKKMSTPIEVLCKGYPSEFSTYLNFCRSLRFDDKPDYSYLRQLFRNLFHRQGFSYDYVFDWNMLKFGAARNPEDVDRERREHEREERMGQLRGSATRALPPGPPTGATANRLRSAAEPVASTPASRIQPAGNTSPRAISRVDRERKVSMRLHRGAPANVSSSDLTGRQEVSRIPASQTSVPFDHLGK
pIC50: −log10 of the molar value.
The label depends only on pIC50: Y if it is at least 6, N if it is smaller.

- COMPOUND: "CCOc1ccc2nc(NC(=O)C(c3ccccc3)c3ccccc3)sc2c1 [Compound 39]"
  GROUP: "N"
- COMPOUND: "O=C(Nc1cccc(Cl)c1)Nc1nc2ccc(C(F)(F)F)cc2s1 [Compound 24]"
  GROUP: "N"
- COMPOUND: "CCOc1ccc2nc(NC(=O)Cc3cccc(Cl)c3)sc2c1 [Compound 48]"
  GROUP: "N"
- COMPOUND: "COc1ccc(CC(=O)Nc2nc3ccc(Cl)cc3s2)cc1 [Compound 2]"
  GROUP: "Y"

Is pIC50 at least 6? Consider O=C(Cc1cccc(Cl)c1)Nc1nc2ccccc2s1 [Compound 20]
N
